# reported yeast fitness; entries follow
B1: tRNA (parent)
chain: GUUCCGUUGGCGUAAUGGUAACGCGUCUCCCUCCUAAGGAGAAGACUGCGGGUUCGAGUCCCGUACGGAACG

Variants of: B1
protocol.description: yeast fitness relative to wild type (ratio to wild type); higher = fitter; tRNA-Arg(CCU), competitive growth, 37 C, YPD
This sample holds only a part of the variants without activity.

Exercise: Can you share its yeast fitness? I mean this variant: C4G U32C
Key: 0.944

Exercise: May I ask what yeast fitness has been recorded for U3A C5A G6C C11U A15G U16A U26G C60G C61U ?
Key: ≤ 0.5

Exercise: Which yeast fitness is reported for this variant? G10C U35G A43C U47C C55U C62U A69C
Key: ≤ 0.5
